target: T1, HeTA (Halomonas elongata, UniProt E1V913, N120V); assay: differential scanning fluorimetry (SYPRO Orange), T1/[…] vs PLP, 1-site fit
T1 construct: IMAC-purified recombinant from E. coli BL21 (DE3) Star; dimer
T1 sequence (E1V913 entry or part of it N120V): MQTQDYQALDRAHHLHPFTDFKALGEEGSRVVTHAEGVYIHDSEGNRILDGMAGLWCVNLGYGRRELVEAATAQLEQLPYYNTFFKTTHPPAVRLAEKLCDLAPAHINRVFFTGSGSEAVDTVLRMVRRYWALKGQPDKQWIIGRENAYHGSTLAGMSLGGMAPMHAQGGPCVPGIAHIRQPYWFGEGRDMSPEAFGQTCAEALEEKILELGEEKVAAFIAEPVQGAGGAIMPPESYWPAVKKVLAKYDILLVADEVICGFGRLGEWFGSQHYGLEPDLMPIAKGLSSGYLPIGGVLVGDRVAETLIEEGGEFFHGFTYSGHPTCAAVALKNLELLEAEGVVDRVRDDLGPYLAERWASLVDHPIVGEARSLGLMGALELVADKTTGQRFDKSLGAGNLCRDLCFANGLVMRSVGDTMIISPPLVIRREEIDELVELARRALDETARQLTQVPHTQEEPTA
pKd: −log10 of the molar value.
measurementKind: pKd

>>> datavalue("Cc1ncc(COP(=O)(O)O)c(C=O)c1O [PLP]")
4.52
